# CAR-J2 EC50 [ng/mL] (PGLALA-CAR-J activation, L363 target cells) values compiled below
# target_or_test_system: human GPRC5D (human, UniProt Q9NZD1 1-345)
# Sequence (Q9NZD1 whole entry): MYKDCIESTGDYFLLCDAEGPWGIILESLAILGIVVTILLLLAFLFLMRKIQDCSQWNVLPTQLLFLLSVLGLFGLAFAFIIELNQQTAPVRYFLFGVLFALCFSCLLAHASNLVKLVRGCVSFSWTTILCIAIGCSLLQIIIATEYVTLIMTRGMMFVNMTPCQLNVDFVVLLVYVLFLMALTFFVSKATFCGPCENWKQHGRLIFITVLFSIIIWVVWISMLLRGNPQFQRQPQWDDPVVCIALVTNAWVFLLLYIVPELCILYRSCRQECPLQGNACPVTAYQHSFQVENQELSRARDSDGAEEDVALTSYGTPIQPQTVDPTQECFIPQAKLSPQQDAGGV
# protocol_text: cell-based or functional assay
Numeric only. Scale: ng/mL

| binder | recorded_value |
| --- | --- |
| P1AE5719 (antibody, V domains shown, Humanized 5E11 IgG; PGLALA Fc implied by the CAR-J assay; also called 5E11_VH1b + 5E11_VL3b) VH: ELQLLESGGGLVQPGGSLRLSCAASGFTFSKYAMAWVRQAPGKGLEWVASISTGGVNTYYRDSVKARFTISRDNAKNTLYLQMNSLRAEDTAVYYCATHTGDYFDYWGQGTMVTVSS VL: DIQMTQSPSSLSASVGDRVTITCRASQSVSISGINLMNWYQQKPGQQPKLLIYHASILASGVPSRFSGSGSGTDFTLTISSLQPEDFATYYCQQTRESPLTFGQGTRLEIK | 2.8 |
| P1AE5721 (antibody, V domains shown, Humanized 5E11 IgG; PGLALA Fc implied by the CAR-J assay; also called 5E11_VH1c + 5E11_VL1c) VH: EVQLLESGGGLVQPGGSLRLSCAASGFTFSKYAMAWVRQAPGKGLEWVASISTGGVNTYYADSVKGRFTISRDNSKNTLYLQMNSLRAEDTAVYYCATHTGDYFDYWGQGTMVTVSS VL: DIVMTQSPDSLAVSLGERATINCKSSQSVSISGINLMNWYQQKPGQQPKLLIYHASILASGVPDRFSGSGSGTDFTLTISSLQAEDVAVYYCQQTRESPLTFGQGTRLEIK | 25 |
| P1AE5722 (antibody, V domains shown, Humanized 5E11 IgG; PGLALA Fc implied by the CAR-J assay; also called 5E11_VH1c + 5E11_VL2a) VH: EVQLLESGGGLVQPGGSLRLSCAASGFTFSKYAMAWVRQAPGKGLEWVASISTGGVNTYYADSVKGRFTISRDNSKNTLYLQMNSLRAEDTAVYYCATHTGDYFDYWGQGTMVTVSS VL: EIVLTQSPGTLSLSPGERATLSCRASQSVSISGINLMNWYQQKPGQQPRLLIYHASILASGIPDRFSGSGSGTDFTLTISRLEPEDFAVYYCQQTRESPLTFGQGTRLEIK | 4.6 |
| P1AE5714 (antibody, V domains shown, Humanized 5E11 IgG; PGLALA Fc implied by the CAR-J assay; also called 5E11_VH1b + 5E11_VL1a) VH: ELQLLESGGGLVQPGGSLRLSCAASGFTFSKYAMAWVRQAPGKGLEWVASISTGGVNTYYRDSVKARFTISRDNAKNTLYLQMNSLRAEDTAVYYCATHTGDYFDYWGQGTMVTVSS VL: DIVMTQSPDSLAVSLGERATINCRASQSVSISGINLMNWYQQKPGQQPKLLIYHASILASGVPDRFSGSGSGTDFTLTISSLQAEDVAVYYCQQTRESPLTFGQGTRLEIK | 5.5 |
| P1AE5717 (antibody, V domains shown, Humanized 5E11 IgG; PGLALA Fc implied by the CAR-J assay; also called 5E11_VH1b + 5E11_VL2b) VH: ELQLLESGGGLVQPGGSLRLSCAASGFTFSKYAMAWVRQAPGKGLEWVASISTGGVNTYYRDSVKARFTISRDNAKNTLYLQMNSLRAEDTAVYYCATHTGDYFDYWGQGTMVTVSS VL: EIVLTQSPGTLSLSPGERATLSCRASQSVSISGINLMNWYQQKPGQQPKLLIYHASILASGIPDRFSGSGSGTDFTLTISRLEPEDFAVYYCQQTRESPLTFGQGTRLEIK | 79.9 |

State its CAR-J2 EC50 [ng/mL] (PGLALA-CAR-J activation, L363 target cells): 5E11-IgG (antibody, V domains shown, Rat-derived variable domains, tested as IgG; also called P1AE5706 (parental); 5E11 parental) VH: ELQLEQSGGGLVQPGGSLTLSCAASGFTFSKYAMAWVRQAPTKGLEWVASISTGGVNTYYRDSVKARFTISRDNAKNTQYLQMDSLRSEDTATYYCATHTGDYFDYWGQGVMVTVSS VL: DIVLTQSPALAVSPGQRATISCRASQSVSISGINLMNWYQQKPGQQPKLLIYHASILASGIPTRFSGSGSGTDFTLTIDPVQADDIATYYCQQTRESPLTFGSGTNLEIK
3.9

State its CAR-J2 EC50 [ng/mL] (PGLALA-CAR-J activation, L363 target cells): P1AE5712 (antibody, V domains shown, Humanized 5E11 IgG; PGLALA Fc implied by the CAR-J assay; also called 5E11_VH1a + 5E11_VL3a) VH: EVQLLESGGGLVQPGGSLRLSCAASGFTFSKYAMAWVRQAPGKGLEWVASISTGGVNTYYRDSVKARFTISRDNSKNTLYLQMNSLRAEDTAVYYCATHTGDYFDYWGQGTMVTVSS VL: DIQMTQSPSSLSASVGDRVTITCRASQSVSISGINLMNWYQQKPGKQPKLLIYHASILASGVPSRFSGSGSGTDFTLTISSLQPEDFATYYCQQTRESPLTFGQGTRLEIK
16.1

State its CAR-J2 EC50 [ng/mL] (PGLALA-CAR-J activation, L363 target cells): P1AE5731 (antibody, V domains shown, Humanized 5E11 IgG; PGLALA Fc implied by the CAR-J assay; also called 5E11_VH1d + 5E11_VL3b) VH: ELQLLESGGGLVQPGGSLRLSCAASGFTFSKYAMAWVRQAPGKGLEWVASISTGGVNTYYADSVKGRFTISRDNAKNTLYLQMNSLRAEDTAVYYCATHTGDYFDYWGQGTMVTVSS VL: DIQMTQSPSSLSASVGDRVTITCRASQSVSISGINLMNWYQQKPGQQPKLLIYHASILASGVPSRFSGSGSGTDFTLTISSLQPEDFATYYCQQTRESPLTFGQGTRLEIK
2.3

State its CAR-J2 EC50 [ng/mL] (PGLALA-CAR-J activation, L363 target cells): P1AE5713 (antibody, V domains shown, Humanized 5E11 IgG; PGLALA Fc implied by the CAR-J assay; also called 5E11_VH1a + 5E11_VL3b) VH: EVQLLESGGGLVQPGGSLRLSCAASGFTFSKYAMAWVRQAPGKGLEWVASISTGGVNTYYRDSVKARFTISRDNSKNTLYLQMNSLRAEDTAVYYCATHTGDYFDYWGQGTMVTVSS VL: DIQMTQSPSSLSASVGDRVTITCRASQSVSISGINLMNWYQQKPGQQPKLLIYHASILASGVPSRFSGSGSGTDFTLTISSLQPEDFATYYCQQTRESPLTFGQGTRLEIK
76.9

State its CAR-J2 EC50 [ng/mL] (PGLALA-CAR-J activation, L363 target cells): 5E11_P1AE5723 (antibody, V domains shown, Humanized 5E11 IgG; PGLALA Fc implied by the CAR-J assay; also called 5E11_VH1c + 5E11_VL2b) VH: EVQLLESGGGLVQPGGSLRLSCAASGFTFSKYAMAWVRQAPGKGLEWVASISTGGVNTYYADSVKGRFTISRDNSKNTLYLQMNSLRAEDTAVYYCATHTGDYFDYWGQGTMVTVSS VL: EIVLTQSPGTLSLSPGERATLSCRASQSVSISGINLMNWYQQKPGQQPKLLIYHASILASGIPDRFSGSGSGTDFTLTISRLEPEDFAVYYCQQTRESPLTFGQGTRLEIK
3.7

State its CAR-J2 EC50 [ng/mL] (PGLALA-CAR-J activation, L363 target cells): P1AE5724 (antibody, V domains shown, Humanized 5E11 IgG; PGLALA Fc implied by the CAR-J assay; also called 5E11_VH1c + 5E11_VL3a) VH: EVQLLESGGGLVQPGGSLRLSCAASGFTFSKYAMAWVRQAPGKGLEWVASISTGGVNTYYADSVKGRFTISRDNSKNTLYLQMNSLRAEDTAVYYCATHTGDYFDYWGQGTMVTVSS VL: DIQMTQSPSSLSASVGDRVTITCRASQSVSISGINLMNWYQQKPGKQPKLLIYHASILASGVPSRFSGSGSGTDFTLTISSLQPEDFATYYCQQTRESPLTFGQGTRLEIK
3.6
